Below is a list of entries, each paired with its recorded IC50 value.
# Tested on: THP-1
# Assay Details: Cytotoxicity against human THP1 cells after 6 days by Alamar blue assay
# Format: cell-based
# Measurement Parameters: THP-1, 144 h
All answers are understood in µM, so give the number only.

Previously resolved entries follow.
Look up IC50 for this compound: O=[N+]([O-])c1ccc([C@@H]2CCO[P@](=O)(N(CCCl)CCCl)N2)cc1
64.8

Look up IC50 for this compound: NP(=O)(OCc1cccc([N+](=O)[O-])c1)N(CCCl)CCCl (stereo not given)
64.8

Look up IC50 for this compound: O=[N+]([O-])c1ccc([C@@H]2CCN[P@@](=O)(N(CCCl)CCCl)O2)cc1
64.8

Others:
Look up IC50 for this compound: NP(=O)(OCc1ccc([N+](=O)[O-])cc1F)N(CCCl)CCCl (stereo not given)
20.3

Look up IC50 for this compound: CC(C)(C(=O)N[C@@H]1CCN[P@@](=O)(N(CCCl)CCCl)O1)c1ccccc1[N+](=O)[O-]
64.8
